- PROTOCOL_NOTES: NCI Yeast Anticancer Drug Screen. Data for the rad50 strain (AID 155)
- CONDITION: S. cerevisiae rad50 strain growth inhibition; at 5.0 µM (retest, dose inferred, filed as 0.5)
- Protocol: Growth inhibition of yeast strains with defined genetic alterations is measured as a screen for potential anti-cancer activity. Selected strains with alterations in DNA damage repair or cell cycle control were exposed to compounds and growth inhibition was measured relative to vehicle treated controls. The strain used in this assay is rad50
This is part of a sample that, as a whole, favours compounds with a hit. Of some 79,000 tested, about 15% had one in any assay. The source made the active and inactive calls. Cut-off read from the data, not from the text of the source: active = growth inhibition above about 70%; inactive = the rest.
Respond using exactly one of the listed classes: t (active), f (inactive)

Qu. Hello, I am checking results. What call was entered for `CCOC(=O)CCC(=O)Oc1ccc2c(c1OC(=O)CCC(=O)OCC)C(=O)c1ccccc1C2=O` ?
Ans. f

Qu. Also CCS(=O)(=O)c1ccc(NC(=O)OC2CC(C)CCC2C(C)C)cc1 (centres undefined) ?
Ans. f

Qu. Also CC1(C)OC2OC(/C=C/[N+](=O)[O-])C3OC(C)(C)OC3C2O1 (centres undefined) ?
Ans. f

Qu. Also `CC(=O)Oc1c2ccccc2c(C)c2c1ccc1ccccc12` ?
Ans. f

Qu. Also `CC(=O)NNc1nc(C)c(C(=O)NNC(=O)C(=O)Nc2ccc(Cl)c([N+](=O)[O-])c2)s1` ?
Ans. f

Qu. Also `Cc1[nH]c2ccccc2c1-c1ccccc1` ?
Ans. f

More entries:
Qu. Hello, I am checking results. What call was entered for `CCCCCCCCCCCCOc1c(Cl)cc(Cl)c(Cl)c1Cc1c(O)c(Cl)cc(Cl)c1Cl` ?
Ans. f

Qu. Also COC1CCCCC1C(=O)C(C#N)C1CCCCC1C1CCCCC1 (centres undefined) ?
Ans. f

Qu. Also `O=[N+]([O-])c1cccc2c(O)cccc12` ?
Ans. f

Qu. Also `O=C(Nc1c(Cl)cccc1Cl)OCc1ccc2c(c1)OCO2` ?
Ans. f

Qu. Also `O=S1(=O)C=C(c2ccccc2)S(=O)(=O)C=C1c1ccccc1` ?
Ans. f

Qu. Also O=c1ccn(C2OC(COC(c3ccccc3)(c3ccccc3)c3ccccc3)C(O)C2O)c(=O)[nH]1 (centres undefined) ?
Ans. f

Qu. Also `CC(=O)Oc1ccc(C)cc1C(C)(C)C` ?
Ans. f

* * *

- PROTOCOL_NOTES: NCI Yeast Anticancer Drug Screen. Data for the sgs1 mgt1 strain (AID 161)
- CONDITION: S. cerevisiae sgs1 mgt1 strain, at 50.0 µM
This is part of a sample that, as a whole, favours compounds with a hit. Of some 79,000 tested, about 15% had one in any assay. The source made the active and inactive calls. No stated cut-off is given here; in the data, active means growth inhibition above about 70%; inactive means the rest.
Respond using exactly one of the listed classes: active, inactive

Worked examples follow.
Qu. Hello, I am checking results. What call was entered for ClC(Cl)(Cl)C(NCCN1CCOCC1)c1ccccc1 (stereo not given) ?
Ans. active

Qu. Also CC1CCC2(OC1)OC1CC3C4CCC5CC(OC6OC(COC7OC(CO)C(O)C(O)C7O)C(OC7OC(C)C(O)C(O)C7O)C(O)C6OC6OC(CO)C(O)C(O)C6O)CCC5(C)C4CCC3(C)C1C2C (stereo not given) ?
Ans. active

Qu. Also O=C1OC2=C(CCc3nc(-c4ccccc4)sc32)C(N(c2ccccc2)c2ccccc2)C1(Cl)Cl (stereo not given) ?
Ans. active

Qu. Also `O=NNc1ncc(Sc2ccccc2)nc1Sc1ccccc1` ?
Ans. inactive

Qu. Also `CS/C(C#N)=C(\C#N)SC` ?
Ans. inactive

Qu. Also CCCC(C)c1ccc(O)cc1 (stereo not given) ?
Ans. inactive

Qu. Also `CCn1cnc2[nH]cc(C#N)c2c1=O` ?
Ans. inactive

Qu. Also COc1ccc(C(c2cc3c(cc2O)OCO3)N2CCOCC2)c(OC)c1OC (stereo not given) ?
Ans. inactive

Qu. Also CCOCCOC(=O)C(C)O (stereo not given) ?
Ans. inactive

Qu. Also CC12OC1C(=O)c1ccccc1C2=O (stereo not given) ?
Ans. active

More entries:
Qu. Hello, I am checking results. What call was entered for `O=C1C=CC(=O)N1c1ccc(Cl)cc1Br` ?
Ans. active

Qu. Also CCC12C=CCN3CC[C@@]4(c5cc([C@@]6(C(=O)OC)C[C@@H]7CN(CCc8c6[nH]c6ccccc86)C[C@](O)(CC)C7)c(OC)cc5N(C)[C@H]4[C@@](O)(C(=O)OC)[C@@H]1OC(=O)CCCCCCCCCCCN1C(=O)C=CC1=O)[C@H]32 (stereo not given in full) ?
Ans. active

Qu. Also `CN(C)c1ccc(C(O)(Cc2cccnc2)c2ccc(N(C)C)cc2)cc1` ?
Ans. inactive

Qu. Also `Nc1ccc2nnnn2c1` ?
Ans. inactive

Qu. Also `O=C1/C(=C/c2ccc(Cl)cc2)CCC/C1=C\c1ccc(O)c(CN2CCCCC2)c1` ?
Ans. inactive

Qu. Also `Clc1ccccc1/C=C/c1nccc2ccccc12` ?
Ans. active

Qu. Also `C[N+]1(C)C/C(=C\C=C\c2ccccc2)C(=O)/C(=C/C=C/c2ccccc2)C1` ?
Ans. active

Qu. Also CCN(CC)c1ccc(NC(C(=O)c2ccccc2)c2ccc3c(c2)OCO3)cc1 (stereo not given) ?
Ans. inactive

Qu. Also CC1CN(CC2CCCCCCCCCCC2=O)CC(C)O1 (stereo not given) ?
Ans. active

Qu. Also `CCCCN=C(c1ccc(O)cc1)c1ccc(OC)cc1O` ?
Ans. inactive
